Molecular target: T1, His-tagged human CD38 (ACRO Biosystems CD8-H5224) (human, UniProt P28907 43-300)
T1 construct: bought protein; used for ELISA coating and as SPR analyte; not shown: His tag
Assay: SPR (second run), His-tagged CD38
pKd: −log10 of the molar value.
Label Criterion met for high-side pKd (at or above 8) and Criterion not met for low-side pKd (below it).

binder	discrete-label
40617p1.2.A1 (scFv, V domains shown) VH: EVQLLESGGGLVQPGGSLRLSCAASGFTFSSYWMTWVRQAPGKGLEWVSAISSYGGQYTYYADSVKGRFTISRDNSKDTLYLHMDSLRAEDTAVYYCAKDWDDGMDVWGQGTTVTVSS VL: EIVMTQSPAVLSVSPGERATLSCRASQSVNIKLAWYQQKPGQAPRLLIYGASTRAAGIPDRFSGSGSGTDFTLTISSLQSDDFAVYYCQQYYDLPPYSFGGGTKVEIK	Criterion not met
40596p1.A5 (scFv, V domains shown) VH: EVQLLESGGGLVQPGGSLRLSCAASGFDFSNNAMSWVRQAPGKGLEYVAGSGWSGSFIFYADSVKGRFTVSRDNSENTLYLQMNSLRAEDTAVYYCAKNPGFGEMDVWGQGTTVTVSS VL: EIVLTQSPGSLSLSPGERATLRCRASQSIGSNLAWYQQKPGQAPSLLIYGASTRAADIPDRFSGSGSGTEFTLTITSLQSEDFAVYYCQQYNSWPPLTFGGGTKVEIK	Criterion not met
40617p1.2.B4 (scFv, V domains shown) VH: EVQLLESGGGFVQPGGSLRLSCAASGFTFTNYVMNWVRQAPGKGLEWVSSISISGGRYTWYADSVKGRFTISRDNSRNTLYLQMNSLRAEDTAIYYCAREMNTYSFPMDVWGQGTTVTVSS VL: EIVLTQSPGTLSLSPGERATLNCRASQNVRSDLAWYQQKPGQAPRLLIYDASNRATGIPDRFSGSGSGTDFSLTISRLEPEDFAVYYCQQYYDWPPYTFGGGTKVEIK	Criterion not met
40769p1.1.H1 (scFv, V domains shown) VH: EVQLLESGGGLVQPGGSLRLSCAASGFTFSDYWMNWVRQAPGKGLEWVSTISSGGSMIYHADSVKGRFTISRDNSKNTLYLQMNSLRPEDTAVYYCAKDNWNDYYGMDVWGQGTTVTVSS VL: QSVLTQPPSASGTPGQRVNISCSGSSSNIRYNYVYWYQQVPGTAPKLLIYKDDQRPSGVPDRFSGSKSGTSASLAISELQSEDEADYYCATWDGSLNARVFGGGTKLTVL	Criterion not met
40769p1.1.G10 (scFv, V domains shown) VH: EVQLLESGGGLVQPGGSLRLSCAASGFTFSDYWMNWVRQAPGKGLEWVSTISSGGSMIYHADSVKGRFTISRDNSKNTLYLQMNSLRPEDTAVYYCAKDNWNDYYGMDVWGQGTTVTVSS VL: QSVLTQPPSASGTPGQRVNISCSGSSSNIRYNYVYWYQQVPGTAPKLLIYKDDQRPSGVPDRFSGSESGTSASLAISGLQSEDEADYYCATWDGSLNARVFGGGTKLTVL	Criterion met
40596p1.F6 (scFv, V domains shown) VH: EVQLLESGGGLVQPGGSLRLSCAASGFDFSKNAMSWVRQAPGKGLEYVAGSGWSGSFIFYADSVKGRFTVSRDNSENTLYLQMSSLRAEDTAVYYCAKNPGFGEMDVWGQGTTVTVSS VL: EIVLTQSPGSLFLSPGERATLTCRASQTIGSNLAWYQQKFGQAPRLLIYGASTRAADIPDRFSGSGSGTEFTLTISSLQSEDFAVYYCQQYNSWPPLTFGGGTKVEIK	Criterion not met
